B1: library; numbered along this chain (parent)
chain: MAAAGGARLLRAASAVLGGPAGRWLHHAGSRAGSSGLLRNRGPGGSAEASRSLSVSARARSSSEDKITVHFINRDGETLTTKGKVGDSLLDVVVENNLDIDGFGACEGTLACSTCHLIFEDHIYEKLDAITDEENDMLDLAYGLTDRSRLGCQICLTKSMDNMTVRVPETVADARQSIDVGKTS

Variants of: B1
Test: scaled log2 fold change in cell abundance, elesclomol vs control (0 = silent mean, 1 = nonsense mean) (scaled log2 ratio); higher = higher viability under elesclomol (loss of FDX1 cuproptosis function);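 also: variant abundance is its share of total variant reads in each endpoint sample, from next-generation sequencing of the integrated ORF PCR-amplified out of genomic DNA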
Conditions: with ABC1 FDX1 KO; elesclomol 5 nM; glucose 10 mM; 14 days
MEASURE: scaled log2 fold change

Example variants with recorded scaled log2 fold change:
R51Y : 0.343
D75F : -0.548
G151A : 0.241
I130K : -0.203
A141M : -0.0992

Req: Using the record for D101G , report its scaled log2 fold change.
Resp: 0.085

Req: Request: T183I
Resp: 0.0224

Req: Same for F103N
Resp: 1.06

Req: Now try R166S .
Resp: 0.275

Req: Proceed to G19W
Resp: 0.277

Req: Entry to check: A28P
Resp: 0.56

Req: Please give the result for A57T too.
Resp: 0.0138
